Test: absolute recovery over vacuum-assisted evaporative concentration; higher = better recovery
Details: wastewater effluent; enrichment method: VEC
readout_kind: absolute recovery

>>> reported_value("CSc1nc(NC(C)C)nc(NC(C)C)n1")
"94.8%"
>>> reported_value("C[NH+](C)CCC(c1ccccc1)c1ccccn1 (stereo not drawn)")
"113%"
>>> reported_value("CC(C)OC(=O)C(C)(C)Oc1ccc(C(=O)c2ccc(Cl)cc2)cc1")
"105%"
>>> reported_value("CCOP(=S)(OCC)Oc1cc(C)nc(C(C)C)n1")
"27.1%"
>>> reported_value("N#Cc1nn(-c2c(Cl)cc(C(F)(F)F)cc2Cl)c(N)c1SC(F)(F)F")
"118%"
>>> reported_value("CN(C)S(=O)(=O)Nc1ccccc1")
"100%"
>>> reported_value("COCCCOc1cc(CC(CC([NH3+])C(O)CC(C(=O)NCC(C)(C)C(N)=O)C(C)C)C(C)C)ccc1OC (stereo not drawn)")
"87.1%"
>>> reported_value("CCC1OC(=O)C(C)C(OC2CC(C)(OC)C(O)C(C)O2)C(C)C(OC2OC(C)CC([NH+](C)C)C2O)C(C)(OC)CC(C)C(=O)C(C)C(O)C1(C)O (stereo not drawn)")
"100%"

----------
Test: absolute recovery over vacuum-assisted evaporative concentration; higher = better recovery
Settings: wastewater influent; enrichment method: VEC
absolute recovery overview
readout_kind: absolute recovery

>>> reported_value("COc1ccc(C2Sc3ccccc3N(CC[NH+](C)C)C(=O)C2OC(C)=O)cc1 (centres undefined)")
"94.2%"
>>> reported_value("CCC(C)c1cc([N+](=O)[O-])cc([N+](=O)[O-])c1[O-] (centres undefined)")
"91.8%"
>>> reported_value("Cc1cc(=O)n(-c2ccccc2)n1C [Phenazon (=Antipyrin)]")
"100%"
>>> reported_value("CNC(=O)Nc1ccc(C(C)C)cc1")
"101%"

----------
Test: absolute recovery over vacuum-assisted evaporative concentration; higher = better recovery
Details: wastewater effluent; enrichment method: VEC
readout_kind: absolute recovery

>>> reported_value("C[NH+](C)CCCC1(c2ccc(F)cc2)OCc2cc(C#N)ccc21 (stereo not given)")
"104%"
>>> reported_value("CCNc1nc(N)nc(Cl)n1")
"102%"
>>> reported_value("Nc1ccn(C2OC(CO)C(O)C2(F)F)c(=O)n1 (stereo not given)")
"88.8%"
>>> reported_value("COCCN(C(=O)C(=O)[O-])c1c(C)cccc1C")
"109%"
>>> reported_value("COc1cc(C)c(C(=O)c2c(OC)ccc(Br)c2C)c(OC)c1OC")
"84.4%"
>>> reported_value("COC(=O)c1cc(C(=O)OC)cc(S(=O)(=O)[O-])c1 [Dimethyl-5-Sulfoisophthalate]")
"108%"
>>> reported_value("NC(=O)c1c(Cl)cccc1Cl")
"102%"
>>> reported_value("O=c1[nH]c2c(c(=O)n1C1CCCCC1)CCC2")
"102%"
>>> reported_value("Nc1ccc(S(=O)(=O)[N-]c2nccs2)cc1")
"99.3%"
>>> reported_value("C[NH+](C)CCOC(c1ccccc1)c1ccccc1 [Diphenhydramine]")
"104%"

----------
Experiment: LC retention time (Atlantis T3, 5-95% MeOH gradient, 0.1% formic acid); higher = more retained / less polar
Please enter t where LC retention time is greater than or equal to 20 min, and f where it is lower.

>>> label("CC(C)[NH2+]CC(O)COc1ccc(CC(=O)[O-])cc1 (centres undefined) [Atenolol-acid (=Metoprolol acid)]")
"f"
>>> label("COC(=O)C(C)N(C(=O)Cc1ccccc1)c1c(C)cccc1C (centres undefined) [Benalaxyl]")
"t"
>>> label("CCCN(CCC)C(=O)SCc1ccccc1 [Prosulfocarb]")
"f"
>>> label("CCN(CC)C(=O)c1cccc(C)c1 [N-N-diethyl-3-methylbenzamid (=DEET)]")
"f"
>>> label("COc1ccc2c(c1OC)C(=O)OC2C1c2c(cc3c(c2OC)OCO3)CC[NH+]1C (centres undefined) [Noscapin]")
"f"
>>> label("NC(=O)c1c(Cl)cccc1Cl [2-6-Dichlorbenzamid]")
"f"
>>> label("OC(Cc1ccccc1Cl)(Cn1[nH]cnc1=S)C1(Cl)CC1 (centres undefined) [Prothioconazole]")
"t"
